System: Citrobacter freundii
Experiment: Minimum inhibitory concentration (MIC) was measured against Citrobacter freundii.
Type: functional
# reported MIC; entries follow
Report the value in µg/mL with no unit label.

COMPOUND	UNIT TAG	MIC
CCN[C@@H]1C[C@H](N)[C@@H](O[C@H]2OC(CN)=CC[C@H]2N)[C@H](O)[C@H]1O[C@H]1OC[C@](C)(O)[C@H](NC)[C@H]1O	µg/mL	0.25
CN[C@@H]1[C@@H](O)[C@@H](O[C@@H]2[C@@H](O)[C@H](O[C@H]3O[C@H](CN)[C@@H](O)[C@H](O)[C@H]3O)[C@@H](N)C[C@H]2NC(=O)[C@@H](O)CN)OC[C@]1(C)O	µg/mL	4
CCNC1CC(N)C(OC2OC(CNC(=O)C(C)N)=CCC2N)C(O)C1OC1OCC(C)(O)C(NC)C1O (stereo unspecified)	µg/mL	32
NC[C@H]1O[C@H](O[C@H]2[C@H](O)[C@@H](O[C@H]3O[C@H](CO)[C@@H](O)[C@H](N)[C@H]3O)[C@H](N)C[C@@H]2N)[C@H](O)[C@@H](O)[C@@H]1O	µg/mL	4
NCC[C@H](O)C(=O)N[C@@H]1C[C@H](N)[C@@H](O[C@H]2O[C@H](CN)[C@@H](O)[C@H](O)[C@H]2O)[C@H](O)[C@H]1O[C@H]1O[C@H](CO)[C@@H](O)[C@H](N)[C@H]1O	µg/mL	4

Problem: Request the reported MIC associated with CC(N)C(=O)NC1CC(N)C(OC2OC(CN)C(O)C(O)C2O)C(O)C1OC1OC(CO)C(O)C(N)C1O (stereo unspecified)
Solution: 64
